Molecular target: T1, Histidine-tagged human 4-1BB protein (h4-1BB-His) (human, UniProt Q07011 24-186)
T1 construct: not shown: histidine tag
Experiment: SPR (Biacore T200), antibody on Protein A chip, h4-1BB-His injected;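 also: dissociation phase followed for 300 s, Kd derived as koff divided by kon from the kinetic fit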
outcome_measure: koff (s⁻¹)
Respond numerically; units are s⁻¹ and should not be typed.

Input line: Which koff reading was recorded for the binder 1C4-H2K2-IgG4 (antibody, V domains shown, humanized) VH: QVQMVQSGAEVKKPGASVKLSCKASGFTFSSSYINWLRQAPGQSLEWIGWIFAGTGGTYYNQKFTGRVQITRDTSASTAYMELSSLRSEDTAIYYCARHSPRATLFDFWGQGTTLTVSS VL: EIVLTQSPATLSLSPGERATLSCRASSSVNHMHWYQQKPGQAPRALIYATSNLASGIPARFSGSGSGTSFTLTISSLEPEDFATYYCQQWSSNPYTFGGGTKLEIK ?
Output line: 0.000646

Input line: Recorded koff for 56-2A6-mHvKv-IgG2 (antibody, V domains shown) VH: QIQLVQSGPELKKPGETVKISCKASGYTFTNYGMNWVKQAPGKGFKWMGWINTYTGEPTYADDFKGRFAFSLEISASTAYLQINNLKNEDTATYFCARRDYLGAMDYWGQGTSVTVSS VL: ENVLTQSPAIMSASPGEKVTMTCRASSSVSSSYLHWYQQKSGASPKLWIYSTSNLASGVPARFSGSGSGTSYSLTISSVEAEDAATYYCQQYSAYLYTFGGGTKLEIK , please?
Output line: 0.00141

Every entry's value here was drawn from patent US20240092922A1.
